substrate: O=c1[nH]cc(CO)c(=O)[nH]1; experiment: purified protein; details: 1 mM α-KG, 0.2 mM (NH4)2Fe(SO4)2, 0.2 mM ascorbic acid, 100 mM Hepes pH 7.5, 25 °C
Parameter kcat/Km: see the listing below.
measuredQuantity: kcat/Km

| protein | measuredQuantity | observedMeasurement |
| --- | --- | --- |
| NcT7H (thymine-7-hydroxylase) (Neurospora crassa OR74A) (protein, full length (residues 1-333), C-terminal His6-tag, pET-28a, expressed in E. coli BL21(DE3); Ni-NTA and gel filtration, tag removal not mentioned) MEKAAVNEDGLVIPLIDFSKFLEGDETLKLETAKAILHGFQTAGFIYLKNIPIQPDFREHVFNTSAKFFKLPKEKKLEVGWTTPEANRGYSAPGREKVTQLTDPAEIEKIRSAAPDIKESYEIGREDEPGHPNPWPAEQDDLVGFKSTMNNFFDQCKALHIEVMRAIAVGMGIDANYFDSFVDVGDNILRLLHYPAVKSEVFKINPGQVRAGEHTDYGSITLLFQDSRGGLQVKSPNGQFIDATPIENTVVVNAGDLLARWSNDTIKSTVHRVVEPPKQEDVHPPRYSIAYFCNPNHKSYIEAIPGTYAAESERKYEGINSGKYLVQRLAATY | kcat/Km | 1830 M⁻¹ s⁻¹ |
| NcT7H (thymine-7-hydroxylase) (Neurospora crassa OR74A; R190K) (protein, full length (residues 1-333), C-terminal His6-tag, pET-28a, expressed in E. coli BL21(DE3); Ni-NTA and gel filtration, tag removal not mentioned) MEKAAVNEDGLVIPLIDFSKFLEGDETLKLETAKAILHGFQTAGFIYLKNIPIQPDFREHVFNTSAKFFKLPKEKKLEVGWTTPEANRGYSAPGREKVTQLTDPAEIEKIRSAAPDIKESYEIGREDEPGHPNPWPAEQDDLVGFKSTMNNFFDQCKALHIEVMRAIAVGMGIDANYFDSFVDVGDNILKLLHYPAVKSEVFKINPGQVRAGEHTDYGSITLLFQDSRGGLQVKSPNGQFIDATPIENTVVVNAGDLLARWSNDTIKSTVHRVVEPPKQEDVHPPRYSIAYFCNPNHKSYIEAIPGTYAAESERKYEGINSGKYLVQRLAATY | kcat/Km | 33.3 M⁻¹ s⁻¹ |

Entry source: paper PMC4787775
